// data source = the supplement of paper PMC10567573

Kindly state protein stability index for each of the entries shown.
B1: ZNF263 (parent)
chain: RTHTGEKPYKCTLCGENFSHRSNL

variants of: B1; assay: protein stability index of a GFP-peptide fusion (GPS, HEK-293T) (PSI 1-6); higher = more stable; details: c terminus: a fixed tail appended;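 also: lentivirally expressed fusions sorted by FACS into six bins by GFP to DsRed ratio, PSI derived from sequencing read proportions per bin multiplied by bin number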
One number for each entry.

Check out these entries, answers already filled in.
(Q) Give its protein stability index value. Item: R1D
(A) 1.93

(Q) Give its protein stability index value. Item: S19I
(A) 2.81

(Q) Give its protein stability index value. Item: T12M
(A) 1.43

(Q) Give its protein stability index value. Item: G15F
(A) 2.17

(Q) Give its protein stability index value. Item: T4G
(A) 2.02

(Q) Give its protein stability index value. Item: P8E
(A) 2.82

(Q) Give its protein stability index value. Item: T2M
(A) 1.97

(Q) Give its protein stability index value. Item: R21K
(A) 2.13

Count: 5. Required value per item: protein stability index.
1. L13G
2. K7G
3. N23T
4. G15N
5. T2L

(A)
1: 2.42; 2: 2.31; 3: 1.94; 4: 1.87; 5: 2.17
